Target: T1, Avi/His-HuIL18BPa (recombinant human IL-18BP isoform A with Avi and poly-His tags) (human, biotinylated with BirA on the Avi tag in some assays)
T1 chain: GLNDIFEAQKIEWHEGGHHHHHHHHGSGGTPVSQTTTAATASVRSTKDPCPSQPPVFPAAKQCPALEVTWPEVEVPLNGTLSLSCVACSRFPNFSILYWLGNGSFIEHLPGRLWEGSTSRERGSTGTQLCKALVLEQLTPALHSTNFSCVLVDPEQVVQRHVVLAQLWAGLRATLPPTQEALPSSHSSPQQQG
Experiment: cell-based or functional assay
recorded_endpoint: EC50 of IFNγ release, human PBMCs (nM)
# output: bare number, implied unit nM

Worked set:
binder	units_symbol	EC50 of IFNγ release, human PBMCs
anti-IL-18BP antibody variant BP-04.03 (antibody, V domains shown) VH: QVQLVQSGAEVKKPGASVKVSCKASGYTFTDYDMHWVRQAPGQGLEWMGIISTYYGDVSYAQKFQGRVTMTRDKSTSTVYMELSSLRSENTAVYYCARSGTYYYGTREQHALDYWGQGTLVTVSS VL: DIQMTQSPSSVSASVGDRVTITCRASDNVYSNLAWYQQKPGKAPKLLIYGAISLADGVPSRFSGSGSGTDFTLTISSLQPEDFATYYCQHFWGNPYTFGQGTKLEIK	nM	10.5
anti-IL-18BP antibody variant BP-04.24 (antibody, V domains shown) VH: QVQLVQSGAEVKKPGASVKVSCKASGYTFTDYDMHWVRQAPGQGLEWMGIYSTYYGDVSYAQKFQGRVTMTRDKSTSTVYMELSSLRSEDTAVYYCARSGTYYYGTRESHPLDYWGQGTLVTVSS VL: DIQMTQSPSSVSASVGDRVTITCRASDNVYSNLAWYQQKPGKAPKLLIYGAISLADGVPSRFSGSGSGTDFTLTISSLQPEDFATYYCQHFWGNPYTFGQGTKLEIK	nM	4.84
anti-IL-18BP antibody variant BP-04.05 (antibody, V domains shown) VH: QVQLVQSGAEVKKPGASVKVSCKASGYTFTDYDMHWVRQAPGQGLEWMGIISTYYGVVSYAQKKQGRVTMTRDKSTSTVYMELSSLRSEDTAVYYCARSGTYYYGTRESHAFDYWGQGTLVTVSS VL: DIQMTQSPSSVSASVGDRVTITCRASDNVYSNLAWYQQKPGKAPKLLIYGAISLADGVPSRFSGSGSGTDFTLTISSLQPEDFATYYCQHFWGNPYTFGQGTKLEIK	nM	3.18
anti-IL-18BP antibody variant BP-04.10 (antibody, V domains shown) VH: QVQLVQSGAEVKKPGASVKVSCKASGYTFTDYDMHWVRQAPGQGLEWMGIYSTYYGVVSYAQKFQGRVTMTRDKSTSTVYMELSSLRSEDTAVYYCARSGTYYYGTRESHPLDYWGQGTLVTVSS VL: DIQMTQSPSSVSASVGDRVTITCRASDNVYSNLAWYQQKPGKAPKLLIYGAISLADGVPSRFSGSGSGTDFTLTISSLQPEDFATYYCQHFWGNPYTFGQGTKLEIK	nM	10.5
anti-IL-18BP antibody variant BP-04.19 (antibody, V domains shown) VH: QVQLVQSGAEVKKPGASVKVSCKASGYTFTDYDMHWVRQAPGQGLEWMGIISTYYGVVSYAQKFQGRVTMTRDKSTSTVYMELSSLRSEDTAVYYCARSGTYYYGTRESHAFDYWGQGTLVTVSS VL: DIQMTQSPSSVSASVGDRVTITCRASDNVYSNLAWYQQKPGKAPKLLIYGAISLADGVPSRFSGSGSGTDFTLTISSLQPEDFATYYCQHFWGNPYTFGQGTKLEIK	nM	3.1
anti-IL-18BP antibody variant BP-04.15 (antibody, V domains shown) VH: QVQLVQSGAEVKKPGASVKVSCKASGYTFTDYDMHWVRQAPGQGLEWMGIISTYYGDVSYAQKFQGRVTMTRDKSTSTVYMELSSLRSEDTAVYYCARSGTYNYGTRESHPLDYWGQGTLVTVSS VL: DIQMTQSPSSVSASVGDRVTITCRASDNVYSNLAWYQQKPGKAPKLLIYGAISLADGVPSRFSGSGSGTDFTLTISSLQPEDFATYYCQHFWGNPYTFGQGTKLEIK	nM	12.3

Challenge: Fill blank: measured EC50 of IFNγ release, human PBMCs of the binder anti-IL-18BP antibody variant BP-04.08 (antibody, V domains shown) VH: QVQLVQSGAEVKKPGASVKVSCKASGYTFTDYDMHWVRQAPGQGLEWMGIYSTYYGDVSYAQKKQGRVTMTRDKSTSTVYMELSSLRSEDTAVYYCARSGTYNYGTRESHALDYWGQGTLVTVSS VL: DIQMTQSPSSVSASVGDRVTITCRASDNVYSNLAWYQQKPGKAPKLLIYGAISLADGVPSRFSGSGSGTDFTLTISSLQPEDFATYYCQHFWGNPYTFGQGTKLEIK is ____.
Response given: 174

Challenge: Repeat with anti-IL-18BP antibody variant BP-04.21 (antibody, V domains shown) VH: QVQLVQSGAEVKKPGASVKVSCKASGYTFTDYDMHWVRQAPGQGLEWMGIISTYYGVVSYAQKFQGRVTMTRDKSTSTVYMELSSLRSEDTAVYYCARSGTYNYGTRESHALDYWGQGTLVTVSS VL: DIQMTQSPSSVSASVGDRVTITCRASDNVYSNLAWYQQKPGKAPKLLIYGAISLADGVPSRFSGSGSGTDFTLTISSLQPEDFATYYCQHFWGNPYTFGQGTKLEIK
Response given: 4.48

Challenge: Repeat with anti-IL-18BP antibody variant BP-04.31 (antibody, V domains shown) VH: QVQLVQSGAEVKKPGASVKVSCKASGYTFTDYDMHWVRQAPGQGLEWMGIISTYYGVVSYAQKFQGRVTMTRDKSTSTVYMELSSLRSEDTAVYYCARSGTYYYGTRESHALDYWGQGTLVTVSS VL: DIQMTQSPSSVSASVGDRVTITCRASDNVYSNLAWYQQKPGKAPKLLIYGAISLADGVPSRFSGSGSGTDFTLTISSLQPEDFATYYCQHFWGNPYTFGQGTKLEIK
Response given: 6.3

Challenge: Repeat with anti-IL-18BP antibody variant BP-04.09 (antibody, V domains shown) VH: QVQLVQSGAEVKKPGASVKVSCKASGYTFTDYDMHWVRQAPGQGLEWMGIYSTYYGVVSYAQKFQGRVTMTRDKSTSTVYMELSSLRSEDTAVYYCARSGTYYYGTRESHAFDYWGQGTLVTVSS VL: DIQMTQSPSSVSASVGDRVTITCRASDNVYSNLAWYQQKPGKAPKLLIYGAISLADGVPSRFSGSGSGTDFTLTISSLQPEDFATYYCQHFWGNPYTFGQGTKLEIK
Response given: 3.74
